Values from PubChem BioAssay (NCI)

growth for assorted compounds
- Tested on: ACHN renal
- Test: NCI-60 one-dose screen, 48 h (100 = growth as untreated, 0 = no growth, -100 = all killed)
- Experimental parameters: 10 µM unless noted
About 83,000 compounds went through this panel and 20% of them were active in at least one assay; those are over-represented in the sample as a whole.
Give the number; % is assumed, so skip it.

Take a look at these entries with their results.
Compound: COc1ccc2c(c1)CCCC21C(=O)Nc2ccccc21 (stereo unspecified)
Study system: ACHN renal
Value reported: 105

Compound: N#CC1=C(N)Oc2nc[nH]c(=O)c2C1c1cccs1 (stereo unspecified)
Study system: ACHN renal
Value reported: 101

Compound: Cc1ccc(/C=C/C(=N/N=C(N)N)c2ccccc2)cc1
Study system: ACHN renal
Value reported: 48.5

I have this compound here, COc1cc(NC(C)CCCN)c2ncccc2c1Oc1ccc(Cl)cc1 (stereo unspecified) , and I need its recorded growth.
82.6

// next record CC[C@H](Nc1nc(C)nc(N)c1C#N)c1nc2cccc(NCc3ccc(C(=O)NO)cc3)c2c(=O)n1-c1ccccc1
2.03

// query: CCCCCCCCCCCCCC[N+](C)(C)CCCCCCCCCCCCCC
57.1

Same for COc1ccc(C(=O)c2cc(C)c(OC)c(C)c2)cc1OC(=O)CCl
21.4

* * *

- System: HOP-92 NSCLC
- Test: NCI-60 one-dose screen, 48 h (100 = growth as untreated, 0 = no growth, -100 = all killed)
- Experimental parameters: 10 µM unless noted
- Protocol: Growth inhibition of the HOP-92 human Non-Small Cell Lung tumor cell line is measured as a screen for anti-cancer activity. Cells are grown in 96 well plates and exposed to the test compound for 48 hours. Compounds are tested at a single concentration, which is 10^-5 M for most compounds. The reported endpoint is percent growth (GI% or GIPRCNT), where numbers from 0 - 100% represent growth inhibition, and numbers from -100% - 0 represent cell death. […]
The panel holds about 83,000 compounds, 20% with a hit somewhere; the sample as a whole holds those more often. Active and inactive are the calls of the source. How the source made its calls: active means growth percent below 10; inactive means the rest.
Property: growth

Compound: c1ccc2c(Cc3csc4ccccc34)csc2c1
Study system: HOP-92 NSCLC
Property: growth
Value reported: 77.7% (inactive)

Compound: COC1=CC(c2ccc[nH]2)=N/C1=C\c1[nH]c(C)c(C(=O)CCCCCCCCC(=O)O[C@H]2CC[C@H]3C4CCc5cc(O)ccc5C4CC[C@]23C)c1C (stereo partly specified)
Study system: HOP-92 NSCLC
Property: growth
Value reported: -14.6% (active)

State its growth on HOP-92 NSCLC: CCCCCCCCCCCCCCC(C(=O)OCC)C(=O)OCC
105% (inactive)

And the next one, CC(CN1CCN(CCOCCO)CC1)CN1c2ccccc2Sc2ccc(Cl)cc21 (stereo unspecified) ?
-3.33% (active)

* * *

- Tested on: LOX IMVI melanoma
- Test: NCI-60 one-dose screen, 48 h (100 = growth as untreated, 0 = no growth, -100 = all killed)
- Experimental parameters: 10 µM unless noted
- Protocol: Growth inhibition of the LOX IMVI human tumor cell line is measured as a screen for anti-cancer activity. Cells are grown in 96 well plates and exposed to the test compound for 48 hours. Compounds are tested at a single concentration, which is 10^-5 M for most compounds. The reported endpoint is percent growth (GI% or GIPRCNT), where numbers from 0 - 100% represent growth inhibition, and numbers from -100% - 0 represent cell death. For example, a value of 40 represents 60% growth inhibition. […]
About 83,000 compounds went through this panel and 20% of them were active in at least one assay; those are over-represented in the sample as a whole.
Heads up, the class ranges for growth are bin 0 (below 40%), bin 1 (40% to below 80%), bin 2 (80% or more)

State the class of the compound shown: COS(=O)(=O)CCN(CCOS(C)(=O)=O)S(C)(=O)=O
bin 2

How about O=C(Nc1ccc2ncnc(Nc3ccc(F)c(Cl)c3)c2c1)c1cccs1 ?
bin 1

Continue with CC(C)[C@H](CN)NC[C@H](C)NS(=O)(=O)c1ccc(C(C)(C)C)cc1
bin 2

Also, Cc1cc(-c2nnc(/C=C/c3ccc4c(c3)OCO4)o2)n[nH]1 please.
bin 1
